Recorded INHIBITION by entry
- Tested on: Plasmodium berghei
- test: Screen against P. berghei liver stage (PbLuc), transformed with Luciferase, at 10uM
- Format: functional, HepG2
- condition.description: tested at 10 uM
Among all 69,000 compounds or so, about 8,600 (12%) showed an effect of 50% or more. Only a selection was taken, and strong results are over-represented in it overall.
Only the number, expressed in %, is required.

Record excerpt, results attached:
molecule=CN(C)CCOCc1nnc2n1CCN(CC1CC1)CC2 observed_result=36.2
molecule="COc1ccc(-n2cccn2)c(CN2CCC3(CCCNC3)C2)c1 (configuration not stated)" observed_result=13

**Q:** Query (molecule): O=C(c1cccnc1)N1CCOC(c2ccc(-c3cncnc3)cn2)C1 (configuration not stated) ; field requested: INHIBITION
**A:** 31.6

**Q:** And Cc1nnc(C(C)N2CCc3[nH]c4ccc(Cl)cc4c3C2)o1 (configuration not stated) ?
**A:** 61.3

**Q:** And Cc1cc(CN(CCO)c2ccc(Br)cc2)on1 ?
**A:** 13.8

Measured values drawn from ChEMBL document CHEMBL4513216 for this set.
